Tested on: Klebsiella pneumoniae
Assay: Antibacterial activity against Klebsiella pneumoniae assessed as reduction in bacterial growth by broth microdilution method
Format: functional
quantity: MIC (µg/mL)
Please give a number only; it is taken to be in µg/mL.

Cc1c(CN(C)C(=O)/C=C/c2cnc3c(c2)CC(N)C(=O)N3)oc2ccccc12 (stereo unspecified) | 8
Cc1c(CNC2CCC(N)CC2)cc(-c2ccc(Cl)cc2)n1-c1ccc(Cl)cc1 (stereo unspecified) | 16
Cc1cc(=O)n(C)c2c3c4c(cc12)c(C)cc(=O)n4C(CN)CO3 (stereo unspecified) | 1

Moving on to the next compound.
Briefly, MIC measured for Cc1c(CNCCCCCCCCNC(=N)N)cc(-c2ccc(Cl)cc2)n1-c1ccc(Cl)cc1 : 16

These entries and their values trace back to ChEMBL document CHEMBL5532669.
